# Tested on: PPARg homodimer (NR concentration 180 nM)
# run description: PBM binding z-score (relative to random genomic background probes); higher = stronger binding; sequences stand for … in GC…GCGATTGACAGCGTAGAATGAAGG
endpoint name: PBM binding z-score

>  <residues>
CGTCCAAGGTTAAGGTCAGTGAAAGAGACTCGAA

>  <numeric result>
3.1

$$$$
>  <residues>
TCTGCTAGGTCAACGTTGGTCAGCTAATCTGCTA

>  <numeric result>
0.191

$$$$
>  <residues>
CGTCCAAGGTCACGGTCAGTGAAAGAGACTCGAA

>  <numeric result>
4.68

$$$$
>  <residues>
CCGAGTAGGTTACGAGGGGTCATTCAGTGCGAAT

>  <numeric result>
4.32

$$$$
>  <residues>
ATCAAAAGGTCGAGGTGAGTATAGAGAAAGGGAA

>  <numeric result>
2.27

$$$$
>  <residues>
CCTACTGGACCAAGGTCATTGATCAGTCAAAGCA

>  <numeric result>
2.59

$$$$

###

# System: PPARg:RXRa 90nM:30nM, anti-RXR (NR concentration 90 nM, RXRa partner concentration 30 nM)
# run description: PBM binding z-score (relative to random genomic background probes); higher = stronger binding; sequences stand for … in GC…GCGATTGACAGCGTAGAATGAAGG
Hi, to clarify the labels: yes (1) covers PBM binding z-score from 5 upward, no (0) covers anything below 5.

>  <residues>
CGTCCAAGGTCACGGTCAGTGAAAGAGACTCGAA

>  <class label>
yes (1)

$$$$
>  <residues>
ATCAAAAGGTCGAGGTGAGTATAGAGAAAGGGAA

>  <class label>
no (0)

$$$$
>  <residues>
CTCGAAAGGTCGTGCTCAGATGAGTATACCAAAC

>  <class label>
no (0)

$$$$
>  <residues>
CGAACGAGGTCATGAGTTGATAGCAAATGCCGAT

>  <class label>
yes (1)

$$$$
>  <residues>
CAAACGAGGTCAAGGTCAAAGTCGGTTTGTGCCA

>  <class label>
yes (1)

$$$$

###

# System: PPARg:RXRa 270nM:90nM, anti-RXR (NR concentration 270 nM, RXRa partner concentration 90 nM)
# run description: PBM binding z-score (relative to random genomic background probes); higher = stronger binding; sequences stand for … in GC…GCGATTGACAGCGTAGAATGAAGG
Each entry below carries its reported PBM binding z-score.

>  <residues>
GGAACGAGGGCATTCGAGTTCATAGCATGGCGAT

>  <PBM binding z-score>
1.33

$$$$
>  <residues>
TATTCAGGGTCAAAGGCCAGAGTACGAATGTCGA

>  <PBM binding z-score>
7.7

$$$$
>  <residues>
CGTTCAAGGTCAAAGGTCAGTGAAGAGATGACGG

>  <PBM binding z-score>
9.86

$$$$
>  <residues>
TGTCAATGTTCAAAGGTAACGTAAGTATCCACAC

>  <PBM binding z-score>
3.47

$$$$
>  <residues>
TCTCGGAGGTCACGAAAGGTCAGAGCTCGACATC

>  <PBM binding z-score>
7.76

$$$$
>  <residues>
CAAACAAGGTCACAGAGGTCAAAGTCCGTGCGTA

>  <PBM binding z-score>
8.4

$$$$

###

# Tested on: PPARg DBDmut IVT, anti-PPARg (DBD mutation: PPARg1 K132A/R137A, NR concentration 270 nM)
# run description: PBM binding z-score (relative to random genomic background probes); higher = stronger binding; sequences stand for … in GC…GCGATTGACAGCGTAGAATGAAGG

>  <residues>
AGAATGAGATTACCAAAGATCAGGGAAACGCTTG

>  <PBM binding z-score>
0.0997

$$$$
>  <residues>
TCTAGTAGGTCAAAGGTCACACACTCGAAATGCG

>  <PBM binding z-score>
3.11

$$$$
>  <residues>
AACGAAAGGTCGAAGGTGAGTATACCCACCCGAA

>  <PBM binding z-score>
-0.0943

$$$$
>  <residues>
CCGAGTTGGTCAAGGTCACACACGCTATAGGTAC

>  <PBM binding z-score>
0.995

$$$$
>  <residues>
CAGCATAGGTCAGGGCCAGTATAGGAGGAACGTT

>  <PBM binding z-score>
-0.223

$$$$
>  <residues>
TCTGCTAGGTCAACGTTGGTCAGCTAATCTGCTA

>  <PBM binding z-score>
0.673

$$$$
>  <residues>
GGAACGAGGTCAAAGTTGATAGCATCTGTCGACG

>  <PBM binding z-score>
1.24

$$$$
>  <residues>
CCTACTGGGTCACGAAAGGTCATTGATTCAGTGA

>  <PBM binding z-score>
2.22

$$$$
>  <residues>
TCTAGTTGGTCAAAGGTCACGCACTCGAAATGCG

>  <PBM binding z-score>
2.56

$$$$
>  <residues>
AATAAAGGGTCATCGTAGGCCAGAGTACGCACAG

>  <PBM binding z-score>
1.46

$$$$
>  <residues>
AATACAGGGTCATCTTAGGCCAGAGTACGCACAG

>  <PBM binding z-score>
0.721

$$$$
>  <residues>
TGTCAAAGTTCAAAGGTTACGTAAGTATCCACAC

>  <PBM binding z-score>
1.43

$$$$
>  <residues>
CGTCCAAAGTCAAAGGTCAGTGAAGAGATGACGG

>  <PBM binding z-score>
0.905

$$$$
>  <residues>
CGTCTAAGGTCATAGGAGGTCAGTGAAGACAGAT

>  <PBM binding z-score>
1.09

$$$$
>  <residues>
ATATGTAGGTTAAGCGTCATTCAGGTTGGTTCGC

>  <PBM binding z-score>
1.99

$$$$
>  <residues>
CGTCAAAGGTCAAGGTAACGTAACAGAAAGCAGC

>  <PBM binding z-score>
3.1

$$$$
>  <residues>
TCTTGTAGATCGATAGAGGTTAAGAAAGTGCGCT

>  <PBM binding z-score>
0.641

$$$$
>  <residues>
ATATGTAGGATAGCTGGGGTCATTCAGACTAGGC

>  <PBM binding z-score>
1.52

$$$$
>  <residues>
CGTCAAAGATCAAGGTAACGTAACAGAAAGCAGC

>  <PBM binding z-score>
0.471

$$$$
>  <residues>
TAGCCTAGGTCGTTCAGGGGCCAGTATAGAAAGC

>  <PBM binding z-score>
-0.473

$$$$
>  <residues>
CGTCCAAGGTCAAGGTCAATGAAAGAGACTCGAA

>  <PBM binding z-score>
2.44

$$$$
>  <residues>
AGAATGGGGTTACCAAAGATCAGGGAAACGCTTG

>  <PBM binding z-score>
1.15

$$$$
>  <residues>
AGAATGAGGTTACCAAAGGTCAGGGAAACGCTTG

>  <PBM binding z-score>
0.912

$$$$
>  <residues>
TAGCCTAGGTCATGCGGGCCAATATAGTGTCGGC

>  <PBM binding z-score>
-0.18

$$$$
>  <residues>
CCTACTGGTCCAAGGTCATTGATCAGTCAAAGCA

>  <PBM binding z-score>
-0.605

$$$$
>  <residues>
CCTACGGGGCCACGAAAGGTCATTGATTCAGTGA

>  <PBM binding z-score>
-1.47

$$$$
>  <residues>
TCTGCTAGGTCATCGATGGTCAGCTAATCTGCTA

>  <PBM binding z-score>
-0.541

$$$$
>  <residues>
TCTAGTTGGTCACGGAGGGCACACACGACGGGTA

>  <PBM binding z-score>
0.752

$$$$
>  <residues>
ACTTACGGCTCAACGAGGTTATAGCACGCGTATA

>  <PBM binding z-score>
0.825

$$$$
>  <residues>
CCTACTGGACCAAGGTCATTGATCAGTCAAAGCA

>  <PBM binding z-score>
0.144

$$$$
>  <residues>
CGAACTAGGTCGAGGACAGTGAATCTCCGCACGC

>  <PBM binding z-score>
-0.0951

$$$$
>  <residues>
TCTCGGAGGAAACGAAAGGTCAGAGCTCGACATC

>  <PBM binding z-score>
-0.298

$$$$
>  <residues>
CAAACCAGGTCAAAGGTCAAAGTCGAGCCAACCA

>  <PBM binding z-score>
1.06

$$$$
>  <residues>
ACTCGGATGACAAAGGTCAGAGCTACGCCAGTGA

>  <PBM binding z-score>
0.346

$$$$
>  <residues>
CAAACTAGGTCACGAGAGGTCAAAGTCGAATGAC

>  <PBM binding z-score>
4.06

$$$$
>  <residues>
TCTAGTTGGTCACGGAGGTCCCACACGACGGGTA

>  <PBM binding z-score>
1.03

$$$$
>  <residues>
CAAAATAGGTCAAAGGTCAAAGTCGAGCCAACCA

>  <PBM binding z-score>
1.57

$$$$
>  <residues>
CAAACGAGGTCAAGAGGTCAAAGTCCGCTTCCCG

>  <PBM binding z-score>
1.69

$$$$
>  <residues>
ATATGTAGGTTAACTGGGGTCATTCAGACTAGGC

>  <PBM binding z-score>
2.42

$$$$
>  <residues>
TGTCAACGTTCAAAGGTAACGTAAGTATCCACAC

>  <PBM binding z-score>
0.758

$$$$
>  <residues>
TCTGCTAGGTCAACGATGGTCAGTTAATCTGCTA

>  <PBM binding z-score>
0.848

$$$$
>  <residues>
ATCGAAAGGTCTAAGGTGAGTATACCCACCCGAA

>  <PBM binding z-score>
0.446

$$$$
>  <residues>
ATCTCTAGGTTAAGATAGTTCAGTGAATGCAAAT

>  <PBM binding z-score>
1.32

$$$$
>  <residues>
CGTCAAAGGTCAGAGAGGTCAGTGAATGCCGAGT

>  <PBM binding z-score>
0.0737

$$$$
>  <residues>
ACTTAAGGGTCAACGAGGTTATAGCACGCGTATA

>  <PBM binding z-score>
3.33

$$$$
>  <residues>
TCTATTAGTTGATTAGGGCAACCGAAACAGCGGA

>  <PBM binding z-score>
0.488

$$$$
>  <residues>
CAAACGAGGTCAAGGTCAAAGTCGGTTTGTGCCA

>  <PBM binding z-score>
1.96

$$$$
>  <residues>
CCTAGTGGGCCAAGGTCATTGATCAGTCAAAGCA

>  <PBM binding z-score>
-0.95

$$$$
>  <residues>
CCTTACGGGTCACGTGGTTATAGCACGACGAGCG

>  <PBM binding z-score>
-0.242

$$$$
>  <residues>
GCTGCTAGGTCAACTGATGGTCACCTAAAGCTCG

>  <PBM binding z-score>
-0.599

$$$$
>  <residues>
CAAACTAGGTCACAGTGGTCAAAGTCCGTGCGTA

>  <PBM binding z-score>
1.68

$$$$
